- assay target: DNA topoisomerase 2-beta (Homo sapiens)
- Sequence (Q02880 whole entry): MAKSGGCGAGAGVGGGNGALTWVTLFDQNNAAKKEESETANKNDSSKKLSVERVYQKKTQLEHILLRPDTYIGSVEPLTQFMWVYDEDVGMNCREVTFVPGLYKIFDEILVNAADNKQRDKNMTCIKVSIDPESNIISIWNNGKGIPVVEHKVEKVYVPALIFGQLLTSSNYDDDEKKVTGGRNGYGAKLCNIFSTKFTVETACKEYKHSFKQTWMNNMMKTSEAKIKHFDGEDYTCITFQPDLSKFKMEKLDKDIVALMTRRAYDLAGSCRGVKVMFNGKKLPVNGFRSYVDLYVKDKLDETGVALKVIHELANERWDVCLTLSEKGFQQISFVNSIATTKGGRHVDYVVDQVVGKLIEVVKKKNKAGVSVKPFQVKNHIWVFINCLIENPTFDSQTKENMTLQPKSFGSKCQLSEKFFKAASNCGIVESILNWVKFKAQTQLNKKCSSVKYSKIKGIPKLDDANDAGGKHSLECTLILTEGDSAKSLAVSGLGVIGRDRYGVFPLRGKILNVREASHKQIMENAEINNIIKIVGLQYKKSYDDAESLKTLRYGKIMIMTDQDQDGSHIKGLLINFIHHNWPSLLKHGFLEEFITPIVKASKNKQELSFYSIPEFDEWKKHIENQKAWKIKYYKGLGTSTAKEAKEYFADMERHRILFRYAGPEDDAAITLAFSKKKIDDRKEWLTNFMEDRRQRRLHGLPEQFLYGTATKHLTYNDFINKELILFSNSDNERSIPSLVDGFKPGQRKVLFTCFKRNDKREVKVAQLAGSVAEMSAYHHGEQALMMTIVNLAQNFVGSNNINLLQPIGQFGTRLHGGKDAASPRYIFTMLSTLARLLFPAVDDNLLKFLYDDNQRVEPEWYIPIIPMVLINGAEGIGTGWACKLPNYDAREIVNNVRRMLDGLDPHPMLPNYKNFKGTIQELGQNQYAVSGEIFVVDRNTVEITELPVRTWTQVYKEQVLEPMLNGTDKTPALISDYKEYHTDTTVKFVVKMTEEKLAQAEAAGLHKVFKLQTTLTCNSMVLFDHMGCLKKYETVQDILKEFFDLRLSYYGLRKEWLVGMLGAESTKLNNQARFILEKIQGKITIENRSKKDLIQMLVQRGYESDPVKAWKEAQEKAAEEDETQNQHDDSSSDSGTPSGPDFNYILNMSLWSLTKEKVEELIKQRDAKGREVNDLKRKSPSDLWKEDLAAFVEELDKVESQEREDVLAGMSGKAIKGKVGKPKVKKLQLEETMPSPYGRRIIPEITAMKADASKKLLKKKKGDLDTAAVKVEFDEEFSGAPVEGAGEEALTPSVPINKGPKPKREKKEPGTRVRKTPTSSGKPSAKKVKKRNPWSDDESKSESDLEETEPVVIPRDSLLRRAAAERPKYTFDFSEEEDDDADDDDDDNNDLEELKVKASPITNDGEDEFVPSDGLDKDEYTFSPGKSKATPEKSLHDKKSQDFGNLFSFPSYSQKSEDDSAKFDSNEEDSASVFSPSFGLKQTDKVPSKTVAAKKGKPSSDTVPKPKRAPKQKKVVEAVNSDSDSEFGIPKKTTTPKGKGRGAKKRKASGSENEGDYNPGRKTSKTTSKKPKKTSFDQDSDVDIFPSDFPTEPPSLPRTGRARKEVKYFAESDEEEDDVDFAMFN
property measured: IC50 (µM)
The answer is to be given in µM; state only the numeric part.

Jot down IC50 (DNA topoisomerase 2-beta (Homo sapiens)) of O=C(Nc1ccc(Nc2ncnc3sc4c(c23)CCCC4)cc1)Nc1ccc(Cl)c(C(F)(F)F)c1 .
9.29

---

- Test system: MCF7
- assay explanation: Antiproliferative activity against human MCF7 cells after 48 hrs by sulforhodamine B assay
- Type: functional, cell-based
- condition parameters: MCF7, 48 h
property measured: IC50

Reference set (4 entries):
[
  {
    "smiles structure": "S=C(Nc1ccccc1)Nc1ccc(Nc2ncnc3sc4c(c23)CCCC4)cc1",
    "IC50": "48.2 µM"
  },
  {
    "smiles structure": "S=C(Nc1ccc(Br)cc1)Nc1ccc(Nc2ncnc3sc4c(c23)CCCC4)cc1",
    "IC50": "9.55 µM"
  },
  {
    "smiles structure": "O=C(Nc1ccc(Nc2ncnc3sc4c(c23)CCCC4)cc1)Nc1cccc(C(F)(F)F)c1",
    "IC50": "51.7 µM"
  },
  {
    "smiles structure": "COc1ccc(NC(=S)Nc2ccc(Nc3ncnc4sc5c(c34)CCCC5)cc2)cc1",
    "IC50": "79.1 µM"
  }
]

Please give measured IC50 of the following entry: S=C(Nc1ccc(Cl)cc1)Nc1ccc(Nc2ncnc3sc4c(c23)CCCC4)cc1
51.5 µM

---

Recorded IC50 by entry
- Tested on: MCF7
- assay explanation: Antiproliferative activity against human MCF7 cells after 48 hrs by sulforhodamine B assay
- Assay type: functional, cell-based
- condition parameters: MCF7, 48 h
The answer is to be given in µM; state only the numeric part.

Reference set (3 entries):
[
  {
    "smiles structure": "Brc1ccc(-c2cs/c(=N\\c3ccc(Nc4ncnc5sc6c(c45)CCCC6)cc3)n2-c2ccccc2)cc1",
    "IC50, µM": 37.3
  },
  {
    "smiles structure": "O=C(NNc1ncnc2sc3c(c12)CCCC3)Nc1cccc(C(F)(F)F)c1",
    "IC50, µM": 22.7
  },
  {
    "smiles structure": "Cc1cccc(NC(=S)Nc2nnc3c4c5c(sc4ncn23)CCCC5)c1",
    "IC50, µM": 99.9
  }
]

Please give measured IC50 of the following entry: Cc1cccc(Cl)c1NC(=S)Nc1ccc(Nc2ncnc3sc4c(c23)CCCC4)cc1
52.1

Please give measured IC50 of the following entry: Cc1ccc(NC(=S)Nc2ccc(Nc3ncnc4sc5c(c34)CCCC5)cc2)cc1
56.1

Please give measured IC50 of the following entry: O=C(Nc1cccc(C(F)(F)F)c1)Nc1nnc2c3c4c(sc3ncn12)CCCC4
68.5

Please give measured IC50 of the following entry: O=C(Nc1ccc(Nc2ncnc3sc4c(c23)CCCC4)cc1)Nc1ccc(Cl)c(C(F)(F)F)c1
7.1

Please give measured IC50 of the following entry: O=C(Nc1cc(C(F)(F)F)ccc1F)Nc1nnc2c3c4c(sc3ncn12)CCCC4
71.9

Please give measured IC50 of the following entry: COc1cccc2c1C(=O)c1c(O)c3c(c(O)c1C2=O)C[C@@](O)(C(=O)CO)C[C@@H]3O[C@H]1C[C@H](N)[C@H](O)[C@H](C)O1
10.6

The values you see were collected from ChEMBL document CHEMBL4251563.
